- ASSAYED_SYSTEM: PDE6
- PROTOCOL_NOTES: PDE6 (so in the source) inhibition, radioenzyme assay, enzyme isolated from vascular tissue
- EXPERIMENTAL_SETUP: PDEs isolated from vascular tissue; 1 μM substrate
pIC50: −log10 of the molar value.
READOUT: pIC50

Entry `CNc1nc(C(F)(F)F)nc2c1ncn2Cc1ccccc1F` , pIC50 reported as < 3.52

---

- ASSAYED_SYSTEM: recombinant PDE4D (Homo sapiens, UniProt Q08499)
- Sequence (Q08499 whole entry, species assumed): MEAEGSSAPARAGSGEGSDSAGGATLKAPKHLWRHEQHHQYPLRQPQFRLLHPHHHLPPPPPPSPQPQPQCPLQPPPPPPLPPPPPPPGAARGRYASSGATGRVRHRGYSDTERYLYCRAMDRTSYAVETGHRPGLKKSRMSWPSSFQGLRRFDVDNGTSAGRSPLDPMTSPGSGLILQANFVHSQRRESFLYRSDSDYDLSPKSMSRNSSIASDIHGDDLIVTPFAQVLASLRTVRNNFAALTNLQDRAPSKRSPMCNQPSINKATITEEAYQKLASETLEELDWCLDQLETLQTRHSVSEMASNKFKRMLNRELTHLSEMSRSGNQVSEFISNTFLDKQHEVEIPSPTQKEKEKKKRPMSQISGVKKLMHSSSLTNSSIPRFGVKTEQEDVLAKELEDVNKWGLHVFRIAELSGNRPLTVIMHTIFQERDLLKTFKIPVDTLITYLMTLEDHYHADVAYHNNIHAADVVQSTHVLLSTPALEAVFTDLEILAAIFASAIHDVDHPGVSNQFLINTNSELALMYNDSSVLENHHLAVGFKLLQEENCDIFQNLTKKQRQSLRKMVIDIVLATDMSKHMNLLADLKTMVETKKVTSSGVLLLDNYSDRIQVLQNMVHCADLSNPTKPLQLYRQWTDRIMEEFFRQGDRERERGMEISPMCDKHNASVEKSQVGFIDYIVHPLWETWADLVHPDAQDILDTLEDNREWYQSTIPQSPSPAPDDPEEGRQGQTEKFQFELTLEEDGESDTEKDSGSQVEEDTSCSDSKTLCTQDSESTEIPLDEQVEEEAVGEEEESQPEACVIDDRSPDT
- PROTOCOL_NOTES: Inhibition of recombinant PDE4 subtype PDE4D
READOUT: pIC50
Just so you know, pIC50 here is -log10 of the concentration in molar units; reply with that number alone.

Record CNc1nc(C(F)(F)F)nc2c1ncn2Cc1ccccc1F [NCS 613] / recombinant PDE4D (Homo sapiens, UniProt Q08499), pIC50 recorded as 7.85

---

- ASSAYED_SYSTEM: PDE5 (Bos taurus)
- Construct: Effects of compound NCS 613 on PDEs isolated
- PROTOCOL_NOTES: PDE5 inhibition, radioenzyme assay, enzyme isolated from vascular tissue
- EXPERIMENTAL_SETUP: PDEs isolated from vascular tissue; 1 μM substrate
READOUT: pIC50
Worth noting: pIC50 values are minus log10 of concentrations stated in mol/L.

CNc1nc(C(F)(F)F)nc2c1ncn2Cc1ccccc1F
5.33

Lab note: next molecule to report on.
pIC50 measured on CCCCn1c(=O)c2c(ncn2CC(C)=O)n(CCCC)c1=O [Denbufylline, denbufylline, reference compound] = 5.27

---

- ASSAYED_SYSTEM: recombinant PDE4B (Homo sapiens, UniProt Q07343)
- Sequence (Q07343 whole entry, species assumed): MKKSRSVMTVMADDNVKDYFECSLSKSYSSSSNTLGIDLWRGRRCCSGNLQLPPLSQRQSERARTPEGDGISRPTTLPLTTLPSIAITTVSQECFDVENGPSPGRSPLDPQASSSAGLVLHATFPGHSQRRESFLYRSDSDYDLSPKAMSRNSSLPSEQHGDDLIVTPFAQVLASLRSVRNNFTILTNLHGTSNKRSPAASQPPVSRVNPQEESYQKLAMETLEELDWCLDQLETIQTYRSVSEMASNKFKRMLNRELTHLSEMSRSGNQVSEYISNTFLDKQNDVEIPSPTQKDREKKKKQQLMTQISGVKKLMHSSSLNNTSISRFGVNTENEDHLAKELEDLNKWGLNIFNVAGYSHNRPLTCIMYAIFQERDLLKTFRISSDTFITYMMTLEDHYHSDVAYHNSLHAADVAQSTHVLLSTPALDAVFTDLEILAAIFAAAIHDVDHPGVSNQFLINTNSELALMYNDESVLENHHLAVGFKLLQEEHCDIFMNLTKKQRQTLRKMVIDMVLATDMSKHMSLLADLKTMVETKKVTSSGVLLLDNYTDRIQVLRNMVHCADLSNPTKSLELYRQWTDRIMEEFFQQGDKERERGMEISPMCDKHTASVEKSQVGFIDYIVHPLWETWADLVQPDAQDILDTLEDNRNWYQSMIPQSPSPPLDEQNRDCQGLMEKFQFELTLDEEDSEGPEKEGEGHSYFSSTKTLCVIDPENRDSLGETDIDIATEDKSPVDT
- PROTOCOL_NOTES: Inhibition of recombinant PDE4 subtype PDE4B
READOUT: IC50 (µM)
Expressed in µM, but write only the number.

The molecule listed as `CNc1nc(C(F)(F)F)nc2c1ncn2Cc1ccccc1F` has a reported IC50 of 0.05

---

- ASSAYED_SYSTEM: recombinant PDE4C (Homo sapiens, UniProt Q08493)
- Sequence (Q08493 whole entry, species assumed): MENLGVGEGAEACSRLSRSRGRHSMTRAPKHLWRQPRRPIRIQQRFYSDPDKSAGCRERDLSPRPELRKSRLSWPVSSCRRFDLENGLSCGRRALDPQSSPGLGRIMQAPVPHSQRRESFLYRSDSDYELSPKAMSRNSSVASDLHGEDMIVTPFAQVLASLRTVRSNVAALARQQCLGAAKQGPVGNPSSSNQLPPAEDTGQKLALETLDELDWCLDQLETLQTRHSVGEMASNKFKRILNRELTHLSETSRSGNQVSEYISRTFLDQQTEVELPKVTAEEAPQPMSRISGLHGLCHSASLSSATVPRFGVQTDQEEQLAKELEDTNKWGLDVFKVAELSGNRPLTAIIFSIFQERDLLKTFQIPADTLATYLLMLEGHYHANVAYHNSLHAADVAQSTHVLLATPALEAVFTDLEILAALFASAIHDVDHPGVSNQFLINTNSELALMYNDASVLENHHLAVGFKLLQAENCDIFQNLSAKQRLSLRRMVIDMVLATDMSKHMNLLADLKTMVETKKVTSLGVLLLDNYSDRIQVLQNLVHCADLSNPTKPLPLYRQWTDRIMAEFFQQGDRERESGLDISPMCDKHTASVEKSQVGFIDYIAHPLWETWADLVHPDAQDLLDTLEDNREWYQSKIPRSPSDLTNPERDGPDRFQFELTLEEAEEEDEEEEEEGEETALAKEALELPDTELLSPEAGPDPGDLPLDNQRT
- PROTOCOL_NOTES: Inhibition of recombinant PDE4 subtype PDE4C
READOUT: IC50 (nM)
Numbers only here, please. The scale is nM.

The value of IC50 recorded for `CNc1nc(C(F)(F)F)nc2c1ncn2Cc1ccccc1F` when tested on recombinant PDE4C (Homo sapiens, UniProt Q08493) reads 1.4

---

- ASSAYED_SYSTEM: recombinant PDE4A (Homo sapiens, UniProt P27815)
- Sequence (P27815 whole entry, species assumed): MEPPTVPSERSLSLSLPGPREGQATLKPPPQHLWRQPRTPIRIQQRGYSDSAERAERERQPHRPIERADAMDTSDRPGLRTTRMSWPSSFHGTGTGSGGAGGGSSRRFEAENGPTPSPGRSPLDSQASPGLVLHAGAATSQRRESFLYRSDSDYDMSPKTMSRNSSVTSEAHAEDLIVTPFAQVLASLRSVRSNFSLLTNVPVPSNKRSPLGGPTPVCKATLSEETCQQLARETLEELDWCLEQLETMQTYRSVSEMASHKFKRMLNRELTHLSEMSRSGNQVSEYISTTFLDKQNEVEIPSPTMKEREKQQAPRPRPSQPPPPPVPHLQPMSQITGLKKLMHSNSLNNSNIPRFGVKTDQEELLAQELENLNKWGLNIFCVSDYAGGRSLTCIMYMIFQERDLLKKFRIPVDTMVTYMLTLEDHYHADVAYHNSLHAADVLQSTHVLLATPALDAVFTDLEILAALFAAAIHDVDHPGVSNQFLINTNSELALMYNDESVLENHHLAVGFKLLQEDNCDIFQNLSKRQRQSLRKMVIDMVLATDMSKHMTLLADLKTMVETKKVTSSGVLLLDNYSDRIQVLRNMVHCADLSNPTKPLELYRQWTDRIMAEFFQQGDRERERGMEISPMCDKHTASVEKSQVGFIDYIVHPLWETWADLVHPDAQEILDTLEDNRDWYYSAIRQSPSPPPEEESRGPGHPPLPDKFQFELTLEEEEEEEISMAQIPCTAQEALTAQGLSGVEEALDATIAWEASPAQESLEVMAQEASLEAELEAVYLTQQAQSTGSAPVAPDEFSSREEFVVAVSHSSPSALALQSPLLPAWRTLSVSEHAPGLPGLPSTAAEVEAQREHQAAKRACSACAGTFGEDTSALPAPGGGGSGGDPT
- PROTOCOL_NOTES: Inhibition of recombinant PDE4 subtype PDE4A
READOUT: IC50 (nM)
Quick note: give the figure in nM, leave out the unit.

IC50 recorded for this molecule, `CNc1nc(C(F)(F)F)nc2c1ncn2Cc1ccccc1F` , is 43

---

compounds and their reported IC50
- ASSAYED_SYSTEM: PDE4
- PROTOCOL_NOTES: PDE4 inhibition, radioenzyme assay, enzyme isolated from vascular tissue
- EXPERIMENTAL_SETUP: PDEs isolated from vascular tissue; 1 μM substrate
Use nM as the unit, but write only the number.

CCCCn1c(=O)c2c(ncn2CC(C)=O)n(CCCC)c1=O [Denbufylline, denbufylline, reference compound]
760

Field: next compound
# compound CNc1nc(C(F)(F)F)nc2c1ncn2Cc1ccccc1F [NCS 613] ; its IC50 = 42
